Can you tell me kon for the items I'm about to list?
- assaySystem: T1, Human CD24 (human, UniProt P25063 27-59, limits assumed)
- T1 chain (looked up): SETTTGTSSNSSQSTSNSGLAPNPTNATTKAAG
- protocolNotes: affinity ranking; antibody as ligand, Human CD24 as analyte
Answers are plain numbers, in M⁻¹ s⁻¹.

Here is how some binders turned out for kon.
binder: VH2 + VL2 (humanized 4451) (antibody, V domains shown, IgG expressed in HEK293) VH: QVQLVQSGAEVKKPGASVKVSCKASGYDFTGYHMNWVRQAPGQGLEWIGEINPITSDKTFNQKFKSRVTMTVDTSISTAYMELSRLRSDDTAVYYCARRDYGTSLDYWGQGTTVTVSS VL: DIQLTQSPSFLSASVGDRVTITCRASKSISKYLAWYQQKPGKAPRLLIYAGSTLHSGVPSRFRGSGSGTEFTLTISSLQPEDFATYYCQQHNEYPITFGQGTKLEIK
kon / M⁻¹ s⁻¹: 1.06e+06
//
binder: VH1 + VL4 (humanized 4451) (antibody, V domains shown, IgG expressed in HEK293) VH: QVQLVQSGAEVKKPGASVKVSCKASGYDFTGYHMNWVRQAPGQGLEWMGEINPITSDKTFNQKFKSRVTMTRDTSISTAYMELSRLRSDDTAVYYCARRDYGTSLDYWGQGTTVTVSS VL: DIQLTQSPSFLSASVGDRVTIYCRASKSISKYLAWYQQKPGKAPRLLIYAGSTLHSGIPSRFRGSGSGTEFTLTISSLQPEDFATYYCQQHNEYPITFGQGTKLEIK
kon / M⁻¹ s⁻¹: 1.61e+06
//
binder: VH3 + VL2 (humanized 4451) (antibody, V domains shown, IgG expressed in HEK293) VH: QVQLVQSGAEVKKPGASVKVSCKASGYDFTGYHMNWVRQAPGQGLEWIGEINPITSDKTFNQKFKSRATMTVDTSISTAYMELSRLRSDDTAVYYCARRDYGTSLDYWGQGTTVTVSS VL: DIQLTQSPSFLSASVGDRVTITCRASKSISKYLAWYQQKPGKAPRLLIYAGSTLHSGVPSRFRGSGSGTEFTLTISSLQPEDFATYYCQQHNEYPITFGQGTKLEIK
kon / M⁻¹ s⁻¹: 1.1e+06
//
binder: VH3 + VL4 (humanized 4451) (antibody, V domains shown, IgG expressed in HEK293) VH: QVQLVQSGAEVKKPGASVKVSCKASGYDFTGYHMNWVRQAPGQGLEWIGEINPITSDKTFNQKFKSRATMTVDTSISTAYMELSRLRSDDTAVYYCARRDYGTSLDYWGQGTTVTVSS VL: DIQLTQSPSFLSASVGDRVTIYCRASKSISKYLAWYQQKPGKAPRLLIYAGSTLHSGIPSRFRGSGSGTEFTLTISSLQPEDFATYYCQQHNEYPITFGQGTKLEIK
kon / M⁻¹ s⁻¹: 655000
//
binder: VH2 + VL1 (humanized 4451) (antibody, V domains shown, IgG expressed in HEK293) VH: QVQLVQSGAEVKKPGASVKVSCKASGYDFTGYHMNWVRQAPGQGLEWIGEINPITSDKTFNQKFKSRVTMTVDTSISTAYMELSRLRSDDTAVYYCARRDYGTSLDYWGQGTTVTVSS VL: DIQLTQSPSFLSASVGDRVTITCRASKSISKYLAWYQQKPGKAPKLLIYAGSTLHSGVPSRFSGSGSGTEFTLTISSLQPEDFATYYCQQHNEYPITFGQGTKLEIK
kon / M⁻¹ s⁻¹: 1.26e+06

I have 4 binders here; please give me kon for each one.
1. VH3 + VL1 (humanized 4451) (antibody, V domains shown, IgG expressed in HEK293) VH: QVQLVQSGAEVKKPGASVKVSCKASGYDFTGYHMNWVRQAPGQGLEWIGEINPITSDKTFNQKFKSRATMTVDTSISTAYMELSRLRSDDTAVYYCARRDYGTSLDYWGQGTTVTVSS VL: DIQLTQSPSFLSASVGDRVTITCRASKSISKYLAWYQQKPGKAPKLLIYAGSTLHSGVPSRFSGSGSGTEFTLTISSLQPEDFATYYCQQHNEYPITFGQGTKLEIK
2. VH4 + VL3 (humanized 4451) (antibody, V domains shown, IgG expressed in HEK293) VH: QVQLVQSGAEVKKPGASVKVSCKASGYDFTGYHMNWVKQAPGQGLEWIGEINPITSDKTFNQKFKSRATMTVDRSISTAYMELSRLRSDDTAVYYCARRDYGTSLDYWGQGTTVTVSS VL: DIQLTQSPSFLSASVGDRVTITCRASKSISKYLAWYQQKPGKAPKLLIYAGSTLHSGIPSRFRGSGSGTEFTLTISSLQPEDFATYYCQQHNEYPITFGQGTKLEIK
3. VH2 + VL4 (humanized 4451) (antibody, V domains shown, IgG expressed in HEK293) VH: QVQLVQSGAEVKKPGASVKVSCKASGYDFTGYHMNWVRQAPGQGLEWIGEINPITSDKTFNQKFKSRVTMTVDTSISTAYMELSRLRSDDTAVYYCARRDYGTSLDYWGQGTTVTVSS VL: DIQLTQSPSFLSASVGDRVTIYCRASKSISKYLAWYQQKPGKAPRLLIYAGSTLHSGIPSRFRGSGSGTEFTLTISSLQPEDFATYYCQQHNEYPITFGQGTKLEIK
4. VH2 + VL3 (humanized 4451) (antibody, V domains shown, IgG expressed in HEK293) VH: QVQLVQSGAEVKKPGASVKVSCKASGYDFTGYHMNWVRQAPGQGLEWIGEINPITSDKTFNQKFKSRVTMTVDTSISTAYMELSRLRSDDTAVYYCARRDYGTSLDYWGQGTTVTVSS VL: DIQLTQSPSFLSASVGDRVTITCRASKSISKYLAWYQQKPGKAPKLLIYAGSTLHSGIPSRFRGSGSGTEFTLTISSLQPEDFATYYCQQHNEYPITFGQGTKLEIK

result:
["1.13e+06", "1.34e+06", "1.16e+06", "1.18e+06"]

I have 2 binders here; please give me kon for each one.
1. VH + VL (4451 parental variable regions, Table 7) (antibody, V domains shown) VH: EVQLQQSGPELVKPGASVKISCKASGYDFTGYHMNWVKQSPEKSLEWIGEINPITSDKTFNQKFKSKATLTVDRSSSTAYMYLKSLTSEDSAVYYCARRDYGTSLDYWGQGTTLTVSS VL: DVQITQSPSYLAASPGETITIYCRASKSISKYLAWYQEKPEKTNRLLIYAGSTLHSGIPSRFRGSGSGKDFTLTVSGLEPEDFAMYYCQQHNEYPITFGAGTKLELK
2. VH4 + VL1 (humanized 4451) (antibody, V domains shown, IgG expressed in HEK293) VH: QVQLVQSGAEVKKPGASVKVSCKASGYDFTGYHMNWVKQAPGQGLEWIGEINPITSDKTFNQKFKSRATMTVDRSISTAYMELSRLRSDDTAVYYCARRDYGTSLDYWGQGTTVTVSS VL: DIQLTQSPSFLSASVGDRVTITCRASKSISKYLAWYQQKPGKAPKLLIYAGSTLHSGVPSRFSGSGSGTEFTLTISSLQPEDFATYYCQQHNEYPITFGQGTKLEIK

result:
2.9e+06
1.54e+06
